Provenance of the data: patent US20070135437A1

# Tested on: hSOD-1 protein levels in HeLa cells
# Experiment Notes: SOD-1 ELISA on lysates of HeLa cells after 72 h incubation with compound
# Assay type: cell-based, human
# Conditions Used: Table 5 heterocyclic amides; % reduction of hSOD-1 protein levels in HeLa cells following 72 h treatment with 10 μM compound
Assign Biological Activity (% inhibition at 10 μM) to each entry below.
One number for each entry, in %.

{"columns": ["Smiles Representation", "Unit Label", "Assay Value"],
 "data": [
  ["Cc1ccnc(NC(=O)c2cccc(Cl)c2)c1", "%", 67],
  ["Cc1ccc(C(=O)Nc2ncccc2Cl)cc1", "%", 74],
  ["Cc1ccc(C(=O)Nc2ccc(Cl)cn2)cc1C", "%", 39],
  ["Nc1ccc(C(=O)Nc2ncccn2)cc1", "%", 92]
]}

For each of the compounds below, note its Biological Activity (% inhibition at 10 μM).
1. Cc1ccc(NC(=O)c2cc(Cl)ccc2Cl)nc1
2. Cc1cccc(C(=O)Nc2ccc(Cl)cn2)c1

1. 94
2. 39
